test system: HEK-293T; test: Multiplex assay against HEK293T; assay type: toxicity, cell-based; details: human, 12 h, 1 µM, compound concentration 1 uM, replicate 2
List of Total Cell Count values.
Provide a numeric answer; units are not to be included.

Molecule: CCNC1(C(N)=O)CCN(c2ncnc3c2nc(-c2ccccc2Cl)n3-c2ccc(Cl)cc2)CC1 [OTENABANT]
Target system: HEK-293T
Measurement name: Total Cell Count
Experimental value: 333

Prompt line: Any idea what its Total Cell Count is? The molecule is CN1CCN(c2nc3cc(C(F)(F)F)ccc3n3cccc23)CC1.O=C(O)/C=C\C(=O)O.O=C(O)/C=C\C(=O)O
Response line: 332

Prompt line: Field entry: COc1cc(C(=O)N(CCCc2ccccc2)Cc2ccc(CC(=O)O)cc2)cc(OC)c1C
Response line: 410

Prompt line: // repeat for CCCn1c(=O)c2[nH]c(C3CCCC3)nc2n(CCC)c1=O and report
Response line: 361

Prompt line: Same lookup for Cc1ccccc1C(=O)Nc1ccc(C(=O)N2CCCC(N(C)C)c3ccccc32)cc1.Cl (stereo unspecified) , please.
Response line: 412

Prompt line: Likewise for O=C(O)Cc1ccccc1Nc1c(Cl)cccc1Cl [DICLOFENAC] ?
Response line: 324
